B1: OR4K15 (parent)
chain: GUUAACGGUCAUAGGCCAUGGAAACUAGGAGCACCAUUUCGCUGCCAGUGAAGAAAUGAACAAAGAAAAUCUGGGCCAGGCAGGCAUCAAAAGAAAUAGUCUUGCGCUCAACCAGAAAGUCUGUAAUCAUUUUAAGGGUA

variants of: B1; assay: self-cleavage, relative activity (ratio to wild type); higher = more cleavage; in vitro, sequencing; the parent is a self-cleaving ribozyme
Known self-cleavage of a selection of variants
When you answer, write just the number.

Reference set (5 entries):
| SEQUENCE_CODE | self-cleavage |
| --- | --- |
| GUUAACGGUCAUAGGCCAUGGAAACUAGGAGCACCAUUUUGCUGCCAGUGAAGAAAUGAACAAAGAAAAUCUGGGCCAGGCAGGCAUCAAAAGAAAUAGUCUUGCGCUCAACCGGAAAGUCUGUAAUCAUUUUAAGGGUA [C40U A114G] | 0.5 |
| GUUAACGGUCAUAGGCCAUGGAAACUAGGAGCACCUUUUCGCUGCCAGUGAAGAAAUGAACAAAGAAAAUCUGGGCCAGGCAGGCAUCAAAAGAAAUAGUCUUGCGCUCAACUAGAAAGUCUGUAAUCAUUUUAAGGGUA [A36U C113U] | 0.02 |
| GUUAACGGUCAUAGGCCAUGGUAACUAGGAGCACCAUUUCGCUGCCAGUGGAGAAAUGAACAAAGAAAAUCUGGGCCAGGCAGGCAUCAAAAGAAAUAGUCUUGCGCUCAACCAGAAAGUCUGUAAUCAUUUUAAGGGUA [A22U A51G] | 1.63 |
| GUUAACGGUCAUAGGCCAUGGAAACUAGGAGCACCAUUUCGCUGCCAGUGAAGGAGUGAACAAAGAAAAUCUGGGCCAGGCAGGCAUCAAAAGAAAUAGUCUUGCGCUCAACCAGAAAGUCUGUAAUCAUUUUAAGGGUA [A54G A56G] | 1.01 |
| GUUAACGGUCAUAGGCCAUGGAAACUAGGAGCACCAUAUCGCUGCCAGUGAAGAAAUGAACAAAGAAAAUCUGGGCCAGGCAGGCAUCAAAGGAAAUAGUCUUGCGCUCAACCAGAAAGUCUGUAAUCAUUUUAAGGGUA [U38A A92G] | 1.34 |

IN: Query: self-cleavage; subject: GUUAACGGUCAUAGGCCAUGGAAACUAGGAGCACCAUCUCGCUGCCAGUGAAGAAAUGAACAAAGAAAAUCUGGGCCAGGCAGGCCUCAAAAGAAAUAGUCUUGCGCUCAACCAGAAAGUCUGUAAUCAUUUUAAGGGUA [U38C A86C]
OUT: 1.31

IN: Query: self-cleavage; subject: GUUAACGGUCAUAGGCCAUGGAAACUAGGAGCACCAUUUCGCUGCCAGUGAAGAAAUGAACAAAGAAAAUCCGGGCCAGGCAGGCAUCAAAAGAAAUAGUCUUGCGCUCAACCAGAAAGUCUGUAAUCUUUUUAAGGGUA [U72C A129U]
OUT: 0.07

IN: Query: self-cleavage; subject: GUUAGCGGUCAUAGGCCAUGGAAACUAGGAGCACCAUUUCGCUGCCAGUGAAGAAAUGAACAAAGAAAACCUGGGCCAGGCAGGCAUCAAAAGAAAUAGUCUUGCGCUCAACCAGAAAGUCUGUAAUCAUUUUAAGGGUA [A5G U70C]
OUT: 0.82

IN: Query: self-cleavage; subject: GUUAACGGUCAUAGGCCAUGGAAACUAGGAGCACCAUUUCGCUGCCAGUGAAGAUAUGAACAAAGAAAAUCUGGGCCAGGCAGGCAUCAAAAGAAAUGGUCUUGCGCUCAACCAGAAAGUCUGUAAUCAUUUUAAGGGUA [A55U A98G]
OUT: 0.19

IN: Query: self-cleavage; subject: GUUAACGGUCAUAGGCCAUGGAAAUUAGGAGCACCAUUUCGCUGCCAGUGAAGAAAUGAACAAAGAAAAUCUGGGCCAGGCAGGCAUCAAAAGAAAUAGUCUUGCGCUCAACCAGAAAGUCUGUAAUCAUUUUAGGGGUA [C25U A135G]
OUT: 1.44

IN: Query: self-cleavage; subject: GUUGACGGUCAUAGGCCAUGGAAACUAGGAGCUCCAUUUCGCUGCCAGUGAAGAAAUGAACAAAGAAAAUCUGGGCCAGGCAGGCAUCAAAAGAAAUAGUCUUGCGCUCAACCAGAAAGUCUGUAAUCAUUUUAAGGGUA [A4G A33U]
OUT: 0.59

IN: Query: self-cleavage; subject: GUUAACGGUCAUAGGCUAUGGAAACUAGGAGCACCAUUUCGCUGCCAGUGAAGAAAUGAACAAAGAAAAUCUGGGCCAGGCAGGCACCAAAAGAAAUAGUCUUGCGCUCAACCAGAAAGUCUGUAAUCAUUUUAAGGGUA [C17U U87C]
OUT: 0.7

IN: Query: self-cleavage; subject: GUUAACGGUCAUAGGCCAUGGAAACUAGGAGCACCAUUUCGCUGCCAGUGAAGAAAUGUACAAAGAAAAUCUGGGCCCGGCAGGCAUCAAAAGAAAUAGUCUUGCGCUCAACCAGAAAGUCUGUAAUCAUUUUAAGGGUA [A59U A78C]
OUT: 0.4
